target: HDAC 8 (Homo sapiens); assay: biochemical
pIC50: −log10 of the molar value.
measure: pIC50

Which value of pIC50 has been reported for CCCC(CCC)C(=O)O [VPA, 2-propyl-pentanoic acid] in the records?
~2.96

* * *

biological target: HDAC 6 (Homo sapiens, UniProt Q9UBN7)
Sequence (Q9UBN7 whole entry): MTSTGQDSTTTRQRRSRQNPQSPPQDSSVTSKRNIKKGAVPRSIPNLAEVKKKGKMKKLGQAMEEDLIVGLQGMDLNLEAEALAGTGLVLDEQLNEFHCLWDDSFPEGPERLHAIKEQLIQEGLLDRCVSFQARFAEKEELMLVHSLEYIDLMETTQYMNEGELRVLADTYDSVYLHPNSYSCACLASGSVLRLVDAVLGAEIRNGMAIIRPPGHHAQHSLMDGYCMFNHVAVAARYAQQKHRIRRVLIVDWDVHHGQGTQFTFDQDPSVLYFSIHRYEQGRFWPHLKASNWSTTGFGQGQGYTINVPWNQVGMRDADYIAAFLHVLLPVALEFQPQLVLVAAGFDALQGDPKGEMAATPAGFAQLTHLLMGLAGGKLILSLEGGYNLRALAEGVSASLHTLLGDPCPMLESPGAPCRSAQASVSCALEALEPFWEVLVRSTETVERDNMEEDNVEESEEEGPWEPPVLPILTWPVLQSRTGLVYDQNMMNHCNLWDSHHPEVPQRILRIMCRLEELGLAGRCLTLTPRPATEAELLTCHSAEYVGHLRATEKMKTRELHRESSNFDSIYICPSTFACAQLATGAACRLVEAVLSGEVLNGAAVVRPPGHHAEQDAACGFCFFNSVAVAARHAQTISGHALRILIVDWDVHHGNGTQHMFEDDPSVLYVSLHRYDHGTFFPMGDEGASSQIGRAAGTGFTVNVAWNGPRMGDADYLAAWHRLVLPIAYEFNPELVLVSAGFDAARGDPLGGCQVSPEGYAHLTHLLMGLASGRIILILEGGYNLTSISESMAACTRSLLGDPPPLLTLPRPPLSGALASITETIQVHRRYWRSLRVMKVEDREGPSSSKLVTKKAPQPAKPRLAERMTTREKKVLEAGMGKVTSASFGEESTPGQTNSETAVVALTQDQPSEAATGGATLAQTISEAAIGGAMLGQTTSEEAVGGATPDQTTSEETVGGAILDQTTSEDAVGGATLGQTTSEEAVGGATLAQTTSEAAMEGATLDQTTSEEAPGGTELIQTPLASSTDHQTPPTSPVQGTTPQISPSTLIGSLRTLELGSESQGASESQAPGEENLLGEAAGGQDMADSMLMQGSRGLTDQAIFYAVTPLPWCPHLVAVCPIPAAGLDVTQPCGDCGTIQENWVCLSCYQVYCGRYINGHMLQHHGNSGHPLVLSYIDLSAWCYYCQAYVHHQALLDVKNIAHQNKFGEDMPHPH
measure: IC50 (mM)
Note: unit mM is implicit; provide only the numeric part.

Give the reported IC50 for CCCC(CCC)C(=O)O (system: HDAC 6 (Homo sapiens, UniProt Q9UBN7)).
1.1
